Sourced from PubChem BioAssay (NCI)

System: HCC-2998 colon
Assay: NCI-60 one-dose screen, 48 h (100 = growth as untreated, 0 = no growth, -100 = all killed)
Conditions: 10 µM unless noted
The panel holds about 83,000 compounds, 20% with a hit somewhere; the sample as a whole holds those more often.
Criterion: growth meeting or surpassing 90%. Met: t. Not met: f.

chemSmiles | classAssignment
Cc1ccc(CNc2ccc(Cl)cc2NCc2ccc(C)c(O)c2)cc1O | f
CCOC(=O)c1c2c(n3ccc(C)cc13)C(=O)c1ccccc1C2=O | t
O=C(Nc1cc(Cl)ccc1O)c1ccc(Nc2ccnc(C(F)(F)F)c2)cc1 | f
CN1CCN(c2ccc(NC(=O)c3cncnc3Nc3ccc(OCc4ccccn4)c(Cl)c3)cc2)CC1 | f
